# Test name: Cmax in mouse at 40 mg/kg, po
# Type: ADME, organism-based
# Design: dose 40 mg/kg, route oral
# Condition set: in vivo
Record form. Attribute: Cmax. Fill in for each entry.
Provide the measurement as a number trailed by its unit.

Compound | Cmax
CCCCC(C(=O)COc1c(F)c(F)cc(F)c1F)n1cc([C@@](C)(NCc2ccc3ncccc3c2)C(C)C)nn1 (some centres not stated) | 833 ng/mL

Now turn to the next compound.
Value of measured Cmax for the entry CCCCC(C(=O)COc1c(F)c(F)cc(F)c1F)n1cc([C@@](C)(NCc2ccc3ncsc3c2)C(C)C)nn1 (some centres not stated) : 1230 ng/mL
